# Assayed system: KRAS G12C (Homo sapiens, UniProt P01116, G12C)
# Sequence (P01116 1-188 isoform P01116-2 G12C): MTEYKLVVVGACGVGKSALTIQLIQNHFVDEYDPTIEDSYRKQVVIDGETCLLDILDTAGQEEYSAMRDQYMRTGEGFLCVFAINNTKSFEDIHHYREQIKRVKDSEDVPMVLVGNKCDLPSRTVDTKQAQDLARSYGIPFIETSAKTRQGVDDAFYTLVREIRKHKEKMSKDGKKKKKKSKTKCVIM
# Experiment notes: GDP-GTP exchange assay (fluorescence based guanine nucleotide exchange, bodipy-GDP for GppNHp, SOS1)
# Stated conditions: bodipy-loaded KRAS G12C 2.5 nM, GppNHp 500 uM, SOS1 150 nM; 2 hours pre-incubation with inhibitor; read-out: G12C_exchange IC50
pIC50: −log10 of the molar value.
Quick list: pIC50 per entry.

Please review the entries below; each comes with its answer.
C=Cc1ncc2n1CCN(c1nc(=O)n(-c3c(C)ccnc3C(C)C)c3nc(-c4c(O)cccc4F)c(F)cc13)C2 (single isomer, unassigned) [Example 2]; 6.00 to 7.00
C=Cc1ncc2n1CCN(c1nc(=O)n(C(C)C)c3nc(-c4c(O)cccc4F)c(F)cc13)C2; 6.00 to 7.00

In plain terms, C=Cc1ncc2n1CCN(c1nc(OCCN(C)C)nc3c(F)c(-c4cc(O)cc5ccccc45)c(Cl)cc13)C2 has a documented pIC50 of 6.00 to 7.00
